target: T1, IGF-II (amino acids 1-67) (human, UniProt P01344 25-91); experiment: SPR (Flexchip), Fab, first of duplicate; unit inferred
T1 construct: mature; also called IGF-II (67aa); IGF2
T1 sequence (P01344 25-91): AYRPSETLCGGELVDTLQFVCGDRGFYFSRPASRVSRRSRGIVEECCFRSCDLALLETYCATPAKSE
MEASURED PARAMETER: Kd (nM)
Please respond with the number in nM and leave the unit unwritten.

Quick one: Kd of M0063-F02 Fab (Fab, V domains shown, Soluble Fab from phage display; also called M0063-F02(R0032-A01)) VH: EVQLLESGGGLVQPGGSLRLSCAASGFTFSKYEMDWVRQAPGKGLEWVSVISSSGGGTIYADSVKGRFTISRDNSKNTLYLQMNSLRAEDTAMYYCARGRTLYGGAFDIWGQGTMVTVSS VL: DIQMTQSPSSLSASVGDRVTITCRASQPINTYLNWYQQRPGKAPRILIYTSSTLQSGVPSRFSGSGSGTDFTLTISSVQPEDFATYYCQQSYSFPLTFGGGTKVEIKR ?
0.77

Quick one: Kd of M0072-G06 Fab (Fab, V domains shown, Soluble Fab from phage display; also called M0072-G06(R0032-C05)) VH: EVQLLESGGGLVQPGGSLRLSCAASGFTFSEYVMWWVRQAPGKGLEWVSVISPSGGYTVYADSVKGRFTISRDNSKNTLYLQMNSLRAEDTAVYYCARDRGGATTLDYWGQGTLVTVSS VL: DIQMTQSPSTLSASVGDRVTITCRASQTISSWLAWYQQKPGKAPKLMIYKAASLGSEVPSRFSGSGSGTEFTLTISSLQPEDFSTYYCQQYKTYPVTFGQGTRLEIKR ?
0.58

Quick one: Kd of M0064-F02 Fab (Fab, V domains shown, Soluble Fab from phage display; also called M0064-F02(R0032-A11); 566A-M0064-F02) VH: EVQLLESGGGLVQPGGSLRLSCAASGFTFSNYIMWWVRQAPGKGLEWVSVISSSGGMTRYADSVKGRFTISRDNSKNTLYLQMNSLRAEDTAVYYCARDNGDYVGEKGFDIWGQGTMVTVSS VL: DIQMTQSPSSLSASVGDRVTITCRASQSISNYLNWYQQKPGKAPKLLIYTASTLQSGVPSRFSGSASGTDFTLTINSLQPEDFATYSCQQSYNSPWTFGQGTKVEIKR ?
0.45

Quick one: Kd of M0070-H08 Fab (Fab, V domains shown, Soluble Fab from phage display; also called M0070-H08(R0032-A07)) VH: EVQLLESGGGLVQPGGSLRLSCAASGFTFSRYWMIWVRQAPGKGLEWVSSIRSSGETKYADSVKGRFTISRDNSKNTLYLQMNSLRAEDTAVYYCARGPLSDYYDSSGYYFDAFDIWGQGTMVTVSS VL: DIQMTQSPSSLSASAGDRVTITCRASQSISSYLNWYQQKPGKAPNLLIYTTSNLQGGVPSRFSGSGSGTDFTLTISSLQPEDFATYYCQQGYSFPLTFGGGTKVEIKR ?
3.3

Quick one: Kd of M0072-C06 Fab (Fab, V domains shown, Soluble Fab from phage display; Often printed as M0072-006; also called M0072-006; M0072-C06(R0032-A09)) VH: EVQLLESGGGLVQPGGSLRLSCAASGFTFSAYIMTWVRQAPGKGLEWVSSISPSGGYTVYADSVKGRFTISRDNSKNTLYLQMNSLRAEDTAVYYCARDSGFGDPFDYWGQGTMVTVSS VL: DIQMTQSPSSLSASVGDRVTITCRASQSIRNYLNWYQQKPGKAPKLLIYAASKLEDGVPSRFSGSGTGTDFTLTIRSLQPEDFASYFCQQSYSSPGITFGPGTKVEIKR ?
5.2

Quick one: Kd of M0064-E04 Fab (Fab, V domains shown, Soluble Fab from phage display; also called M0064-E04(R0032-A03); 566A-M0064-E04) VH: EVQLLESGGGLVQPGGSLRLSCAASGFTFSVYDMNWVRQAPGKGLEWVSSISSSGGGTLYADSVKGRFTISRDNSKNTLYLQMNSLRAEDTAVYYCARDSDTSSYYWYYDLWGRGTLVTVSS VL: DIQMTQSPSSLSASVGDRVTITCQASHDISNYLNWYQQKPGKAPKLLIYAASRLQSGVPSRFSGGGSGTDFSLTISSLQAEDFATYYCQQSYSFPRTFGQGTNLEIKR ?
0.12
